Reported pIC50: -log10 of IC50 values for a set of molecules
Tested on: SARS-CoV-2
Cond: Table 5, further results of Examples 1 and 2
Measured Property: pIC50: -log10 of IC50

Compound Structure String | Numeric Value
Cc1cccc2c1CC[C@H](CN1CCC(c3c(Cl)cccc3Cl)CC1)C[C@@H]2O | 6.11
Cc1nn(C)c2nc(NNC(=O)Nc3cc(Cl)nc(Cl)c3)cc(C(C)C)c12 | 5.22
Cn1cc(-c2ccc3c(c2)CCN3C(=O)Cc2cccc(C(F)(F)F)c2)c2c(N)ncnc21 | 6.60
CC(C)(C)c1cc(/C=C(\C#N)C(N)=S)cc(C(C)(C)C)c1O | 6.70
